system: HeLa; test: Confirmatory qHTS for gynecologic anti-cancer compounds from libraries of approved drugs and bioactive compounds; details: gynecologic cancer cell panel viability, ATPlite luminescence, 48 h; series mostly up to 57.6 µM; note: nearly all actives have a fitted effect of over 55% in size; note: potency is the fitted concentration of half-maximal effect
Inconclusive results are not listed. Calls of active or inactive are those of the source. Calls come from the whole dose curve; as a rule, active = well fitted cell-killing curve with a large enough effect; inconclusive = small, poorly fitted or top-dose-only effect, or effect the other way; inactive = no such curve, though single readings can be large or run the other way.
READOUT TYPE: Potency

Some entries whose results are on file:
COMPOUND | READOUT TYPE | RECORDED RESULT
NCCOc1cc(C(=O)Nc2cc(OCCN)c3ccccc3n2)nc(C(=O)Nc2cc(OCCN)c3ccccc3n2)c1 | Potency | 19.3 µM (active)
COc1cc(-c2nn(C3CCC(N4CCN(C(C)=O)CC4)CC3)c3ncnc(N)c23)ccc1NC(=O)c1cc2ccccc2n1C (stereo not drawn) | Potency | 30.6 µM (active)

Continue with the next compound.
Identify the reported Potency for the following entry. CC[C@]1(O)C[C@@H]2CN(CCc3c([nH]c4ccccc34)[C@@](C(=O)OC)(c3cc4c(cc3OC)N(C)[C@H]3[C@@](O)(C(=O)OC)[C@H](OC(C)=O)[C@]5(CC)C=CCN6CC[C@]43[C@@H]65)C2)C1 0.122 µM (active)

* * *

system: HeLa; test: Confirmatory qHTS for gynecologic anti-cancer compounds from libraries of approved drugs and bioactive compounds; conditions: gynecologic cancer cell panel viability, ATPlite luminescence, 48 h; series mostly up to 57.6 µM; note: nearly all actives have a fitted effect of over 55% in size
Records with an inconclusive call do not appear. Active and inactive are the calls of the source. Calls come from the whole dose curve; as a rule, active = well fitted cell-killing curve with a large enough effect; inconclusive = small, poorly fitted or top-dose-only effect, or effect the other way; inactive = no such curve, though single readings can be large or run the other way.
Response enum: active, inactive

Can you look up the reported call for CNC(=O)c1ccccc1Sc1ccc2c(/C=C/c3ccccn3)n[nH]c2c1 for me? active

* * *

System: HeLa
Assay: Confirmatory qHTS for gynecologic anti-cancer compounds from libraries of approved drugs and bioactive compounds; note: nearly all actives have a fitted effect of over 55% in size
Conditions: gynecologic cancer cell panel viability, ATPlite luminescence, 48 h; series mostly up to 57.6 µM
Source text: National Center for Advancing Translational Sciences [NCATS] Assay Overview: Chemotherapeutic drug responses vary from cancer to cancer and from patient to patient. […] ATPlite is a luminescence based assay reliant on the conversion of a luciferase substrate to light in the presence of ATP. As a cytotoxic compound will suppress growth and decrease the number of cells, the concentration of ATP will decrease, and less light signal will be detected in the well. […]
Inconclusive results are not listed. Calls of active or inactive are those of the source. The call rests on the fitted dose curve; in most records, active means well fitted cell-killing curve with a large enough effect; inconclusive means small, poorly fitted or top-dose-only effect, or effect the other way; inactive means no such curve, though single readings can be large or run the other way.
Response enum: y (active), n (inactive)

COMPOUND | TESTED SYSTEM | LABEL
OCCNC1CCCc2c1[nH]c1ccc(-c3ccccc3)cc21 (centres undefined) | HeLa | y
NC(=O)Nc1cc(-c2cccc(F)c2)sc1C(=O)NC1CCCNC1 (centres undefined) | HeLa | y
Cc1cnc(Nc2ccc(CN3CCOCC3)cc2)nc1Nc1cccc(S(=O)(=O)NC(C)(C)C)c1 | HeLa | y
CN(c1nccc(=O)[nH]1)C1CCN(c2nc3ccccc3n2Cc2ccc(F)cc2)CC1 | HeLa | n
Cc1cc(Nc2nc(N[C@@H](C)c3ccc(F)cc3)c(C#N)cc2F)n[nH]1 | HeLa | y

Can you look up the reported call for O=C1Cc2cc(CCN3CCN(c4nsc5ccccc45)CC3)c(Cl)cc2N1 for me? n

* * *

system: HeLa; assay: Confirmatory qHTS for gynecologic anti-cancer compounds from libraries of approved drugs and bioactive compounds; conditions: gynecologic cancer cell panel viability, ATPlite luminescence, 48 h; series mostly up to 57.6 µM; note: nearly all actives have a fitted effect of over 55% in size
Inconclusive results are not listed. The source made the active and inactive calls. The call rests on the fitted dose curve; in most records, active means well fitted cell-killing curve with a large enough effect; inconclusive means small, poorly fitted or top-dose-only effect, or effect the other way; inactive means no such curve, though single readings can be large or run the other way.
Response enum: active, inactive

SMI | LABEL
Nc1nc(=S)c2[nH]cnc2[nH]1 | active

Can you look up the reported call for CNC(=O)c1nn(C)c2c1C(C)(C)Cc1cnc(Nc3ccc(N4CCN(C)CC4)cc3)nc1-2 for me? active

Can you look up the reported call for O=C(CCCCCCC(=O)Nc1ccccc1)NO for me? active

Can you look up the reported call for S=c1nc[nH]c2nc[nH]c12 for me? active

The origin of these recorded values is PubChem BioAssay AID1345085.
